Assign TGI to each entry below.
System: ACHN renal
assay_method_text: NCI tumour cell line growth inhibition, 48 h

Q: // lookup TGI | system=ACHN renal | key= COC(=O)C1=C(C(=O)OC)C2(C(=O)OC)OC1(OC)C(C1(C(=O)OC)C(C(=O)OC)=C1C(=O)OC)=C2C(=O)OC (stereo not given)
Ans: > 100 µM

Q: How about Fc1ccccc1C1CC(C(c2ccccc2)c2ccccc2)=Nc2ccccc2S1 (stereo not given) ?
Ans: 43.6 µM

Q: Now consider COc1ccc(C2S/C(=C\c3ccc(OC)cc3OC)C(=O)N2NC(=O)Cc2ccccc2)cc1 (stereo not given) .
Ans: > 100 µM

Q: What do you have for CN(/N=C\c1ccc2ccccc2c1)C1=NCCCCN1 ?
Ans: > 100 µM

Q: Now the compound C[C@@H]1CCC2[C@@H](C)C(=O)O[C@@H]3C4C[C@@H]1[C@@]23OO[C@@]4(C)O (stereo not given in full)
Ans: > 100 µM

Q: Record: Oc1ccccc1-n1c(-c2ccccc2)ccc1-c1ccccc1
Ans: 21.2 µM

Q: Field entry: CC1OC(O)C(O)C(O)C1O (stereo not given)
Ans: > 100 µM

Q: Can you check COC(=O)CCC1=C(C)c2cc3[n-]c(cc4nc(cc5[n-]c(cc1n2)c(CCC(=O)OC)c5C)C=C4C)cc3C.[Cd+2] next?
Ans: 38.8 µM

Q: Try the compound Cn1c(=O)n(CC(Br)CBr)c(=O)n(CC(Br)CBr)c1=O (stereo not given)
Ans: > 100 µM

Q: Follow-up item: COc1ccc(C(Nc2ncccn2)c2cc3c(cc2O)OCO3)cc1 (stereo not given)
Ans: > 100 µM

* * *

Tested on: HS 578T breast
assay_method_text: NCI tumour cell line growth inhibition, 48 h
For each entry below, report its TGI value.
Kindly provide the numeric value in µM only, without the unit symbol.

Q: Suppose we examine the compound CCCCCCCSCC(O)COC(c1ccccc1)(c1ccccc1)c1ccccc1 (stereo not given) ; what TGI value has been reported?
Ans: 50.1

Q: Now try COc1ccc(C(Nc2ncccn2)c2cc3c(cc2O)OCO3)cc1 (stereo not given) .
Ans: 52.4

Q: Similarly, C#Cc1ccc(NC(=O)c2ccc(/C=C/C(=O)c3nccn3C)cc2)cc1 ?
Ans: 11.9

Q: Proceed to CC(=O)c1cccc(NC2C(N)C(NC(=O)N(C)C)(C(C)O)C(C)(O)C2(O)COC(=O)c2c(C)cccc2O)c1 (stereo not given)
Ans: 0.0122

Q: # repeat for COC(=O)CCCCC/C(=C\C(=O)C(Cl)(Cl)Cl)OC
Ans: 97.1

Q: Please do the same for O=[As](O)(O)c1ccc(Cc2ccc([As](=O)(O)O)cc2)cc1 as well.
Ans: 12.4

* * *

Tested on: COLO 205 colon
assay_method_text: NCI tumour cell line growth inhibition, 48 h
Kindly supply the reported GI50 values for the records listed here.

Q: Can you share its GI50? I mean this compound: O=C1/C(=C/c2cccs2)CCC/C1=C\c1cccs1
Ans: > 100 µM

Q: CCS/C(Nc1ccccc1)=C(\C#N)C(=O)Nc1ccc(OC)cc1 ?
Ans: 3.06 µM

Q: Cool, now COc1ccc2c3c(c(OCCCN(C)C)nc2c1)-c1ccc(Cl)cc1C3=O
Ans: 5.57 µM

Q: Can you handle O=Nc1c(O)ccc2ccccc12 next?
Ans: 7.81 µM

Q: Check Fc1ccc(-c2ncn(C3CCNCC3)c2-c2ccnc(Oc3cccc(F)c3)n2)cc1 too.
Ans: 5.09 µM

Q: Same for CC(=O)/C(C)=N/N/C(N)=N\S(=O)(=O)c1cc(C(=O)Nc2ccccc2)c(Cl)cc1SCc1ccccc1
Ans: > 100 µM

Q: Please give the result for CCCC[C@@H](COC(=O)N(Cc1cccs1)Cc1cccs1)NC(=O)N[C@@H](CC(=O)OC)c1ccc2c(c1)OCO2 too.
Ans: > 100 µM

Q: Next compound up: CC(=O)N1CC(F)(F)c2c(Sc3ncc(N4CCC5(CC4)COC[C@H]5N)nc3N)cccc21
Ans: 17.8 µM
